Each recorded value in this set is attributed to patent US20210330611A1.

Recorded LPS % cell toxicity by entry
tested on: primary rat microglia; conditions: rat
Record the value in %, omitting the unit from your answer.

Here's what some known entries look like.
Cc1cc(C)nc(NS(=O)(=O)c2ccc(N)cc2)n1; 0
CN(C)CCC=C1c2ccccc2C=Cc2ccccc21; 1
N=C(N)N1CCc2ccccc2C1; 0
N=C(N)c1ccc(OCCCCCOc2ccc(C(=N)N)cc2)cc1; 1

We now examine a further compound.
Please look up its LPS % cell toxicity: O=C(NC(Cc1cc(=O)[nH]c2ccccc12)C(=O)O)c1ccc(Cl)cc1 (centres unmarked) [Rebamipide, reference compound] 2

###

Measured inhibition at 10 µM accompanies every entry in the list below.
test system: LPS-induced microglia activation; assay: Image-based assay of LPS-induced microglia activation (HTS and dose response); type: cell-based, rat; details: Rattus norvegicus, Microglia, 48 h, primary microglia HTS, LPS stimulation; increased cell size (>800 μm^2) as marker of activation; read-out: LPS % inhibition
Where a name gives a salt, the structure may show the parent alone.
Could you give me the number in %? Just the number is fine.

Param item = CCOc1ccc2ccccc2c1C(=O)N[C@@H]1C(=O)N2[C@@H]1SC(C)(C)[C@@H]2C(=O)O [Nafcillin Sodium] ; retrieve measured inhibition at 10 µM. 15

Given C[C@@H]1C[C@@H]([C@H](O)CC2CC(=O)NC(=O)C2)C(=O)[C@@H](C)C1 [Cycloheximide] , state its recorded inhibition at 10 µM. 123

Quick one: inhibition at 10 µM for COC(=O)C1=C(C)NC(C)=C(C(=O)OCCN2CCN(C(c3ccccc3)c3ccccc3)CC2)C1c1cccc([N+](=O)[O-])c1 (stereo not shown) [Manidipine Hydrochloride] ? 12

Need inhibition at 10 µM, item CCN(CC)CCOc1ccc2c(c1)C(=O)c1cc(OCCN(CC)CC)ccc1-2 [Tilorone] 60

Please look up its inhibition at 10 µM: NCCc1cc[nH]n1 [Betazole hydrochloride, reference compound] 38

Can you look up the measured inhibition at 10 µM of CCn1cc(C(=O)O)c(=O)c2cc(F)c(N3CCNCC3)nc21 [Enoxacin] for me? 119

Returns the measured inhibition at 10 µM for the input compound. Input: COc1c(C)c2c(c(O)c1C/C=C(\C)CCC(=O)OCCN1CCOCC1)C(=O)OC2 [Mycophenolate mofetil, reference compound] 79
